Source: paper PMC5290066

targetOfAssay: human Rio1 (Homo sapiens, UniProt Q9BRS2)
Construct: Human recombinant kinase Rio1 containing residues 134–494 was expressed and purified as previously reported; made in house
Sequence (Q9BRS2 134-494): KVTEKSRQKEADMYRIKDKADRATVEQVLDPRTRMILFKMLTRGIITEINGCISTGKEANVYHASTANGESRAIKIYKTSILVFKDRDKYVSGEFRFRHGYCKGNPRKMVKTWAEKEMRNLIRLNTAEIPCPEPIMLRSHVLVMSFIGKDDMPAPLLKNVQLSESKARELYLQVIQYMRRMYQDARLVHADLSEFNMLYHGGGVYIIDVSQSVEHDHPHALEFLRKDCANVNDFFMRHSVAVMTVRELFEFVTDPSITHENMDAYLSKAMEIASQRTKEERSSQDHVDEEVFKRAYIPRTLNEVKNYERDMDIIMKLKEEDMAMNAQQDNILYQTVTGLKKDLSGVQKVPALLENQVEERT
assayMethodText: Rio1 autophosphorylation assay ([γ-32P]ATP)
Type: biochemical
conditionInfo: 0.5 µM ATP, read-out: Ki (µM) ± SD Rio1
measuredAttribute: Ki (µM)
The response must be a number in µM with no trailing unit.

Worked set:
* CC(CC(=O)O)Cn1c(N(C)C)nc2c(Br)c(Br)c(Br)c(Br)c21 (centres unmarked) | 1.23
* Ic1c(I)c(I)c2[nH]cnc2c1I | 0.05
* Cc1nc2c(I)c(I)c(I)c(I)c2[nH]1 | 0.1
* Brc1c(Br)c(Br)c2[nH]cnc2c1Br | 0.186
* Clc1c(Cl)c(Cl)c2[nH]cnc2c1Cl | 1.07

Query: Report measured Ki; entry is CN(C)c1nc2c(Br)c(Br)c(Br)c(Br)c2[nH]1 [DMAT, reference compound]
Response: 0.1

Query: Dear colleague, please send me the reported Ki for O=C(O)c1ccc2c(c1)nc(Nc1cccc(Cl)c1)c1ccncc12 [CX-4945, Silmitasertib, reference compound] when you can.
Response: 0.209

Query: Output measured Ki for this item: Brc1c(Br)c(Br)c2[nH]nnc2c1Br [TBB, 4,5,6,7-Tetrabromo-2-azabenzimidazole, reference compound]
Response: 0.983
